measurementTarget: UniProt Q8ILY1
Sequence (Q8ILY1 entry or part of it): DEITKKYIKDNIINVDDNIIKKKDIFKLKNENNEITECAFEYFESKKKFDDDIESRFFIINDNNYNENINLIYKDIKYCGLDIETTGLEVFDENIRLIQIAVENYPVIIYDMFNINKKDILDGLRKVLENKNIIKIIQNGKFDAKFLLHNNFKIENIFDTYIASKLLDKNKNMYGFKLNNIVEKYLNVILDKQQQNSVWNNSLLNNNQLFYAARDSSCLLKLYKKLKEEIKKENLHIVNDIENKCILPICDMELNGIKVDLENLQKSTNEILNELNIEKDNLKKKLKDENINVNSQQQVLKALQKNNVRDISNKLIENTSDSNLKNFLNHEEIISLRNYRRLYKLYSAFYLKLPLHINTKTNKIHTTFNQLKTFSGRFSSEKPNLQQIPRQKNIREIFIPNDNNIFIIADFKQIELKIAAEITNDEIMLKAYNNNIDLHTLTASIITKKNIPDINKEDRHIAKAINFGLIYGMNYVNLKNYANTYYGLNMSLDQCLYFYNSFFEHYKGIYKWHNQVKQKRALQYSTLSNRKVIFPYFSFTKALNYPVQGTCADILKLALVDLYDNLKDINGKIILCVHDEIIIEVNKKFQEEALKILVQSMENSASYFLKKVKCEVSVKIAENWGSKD
assayMethodText: Fluorescence-based high-throughput DNA polymerase assay (molecular beacon), primary screen and dose-response
Format: biochemical
recordedConditions: DRC-1; read at 10'; concentration 80
The following compounds are listed with their measured % inhibition Apo pol 10' 80 values.
// units = %; emit number, no label

So for O=C1CSC2=NC3=C(CCc4ccccc43)C(c3cccs3)N12 (stereo not shown) , the logged % inhibition Apo pol 10' 80 turned out to be 63.2791

% inhibition Apo pol 10' 80 reported for this compound C#CC(C=CC)OC(=O)c1ccccc1C(=O)O (stereo not shown) : 83.6168

For reference, reported % inhibition Apo pol 10' 80 for O=C(CCc1csc(NC(=O)Nc2ccccc2)n1)Nc1nc2ccccc2s1 stands at 82.5837

The recorded % inhibition Apo pol 10' 80 for Cn1nc(-c2nnc(-c3ccccc3F)o2)c2c1CCN(C(=O)c1ccccc1Cl)C2 is 63
